Molecular target: human Nav1.8 (Homo sapiens (Human))
Sequence (Q9Y5Y9 whole entry): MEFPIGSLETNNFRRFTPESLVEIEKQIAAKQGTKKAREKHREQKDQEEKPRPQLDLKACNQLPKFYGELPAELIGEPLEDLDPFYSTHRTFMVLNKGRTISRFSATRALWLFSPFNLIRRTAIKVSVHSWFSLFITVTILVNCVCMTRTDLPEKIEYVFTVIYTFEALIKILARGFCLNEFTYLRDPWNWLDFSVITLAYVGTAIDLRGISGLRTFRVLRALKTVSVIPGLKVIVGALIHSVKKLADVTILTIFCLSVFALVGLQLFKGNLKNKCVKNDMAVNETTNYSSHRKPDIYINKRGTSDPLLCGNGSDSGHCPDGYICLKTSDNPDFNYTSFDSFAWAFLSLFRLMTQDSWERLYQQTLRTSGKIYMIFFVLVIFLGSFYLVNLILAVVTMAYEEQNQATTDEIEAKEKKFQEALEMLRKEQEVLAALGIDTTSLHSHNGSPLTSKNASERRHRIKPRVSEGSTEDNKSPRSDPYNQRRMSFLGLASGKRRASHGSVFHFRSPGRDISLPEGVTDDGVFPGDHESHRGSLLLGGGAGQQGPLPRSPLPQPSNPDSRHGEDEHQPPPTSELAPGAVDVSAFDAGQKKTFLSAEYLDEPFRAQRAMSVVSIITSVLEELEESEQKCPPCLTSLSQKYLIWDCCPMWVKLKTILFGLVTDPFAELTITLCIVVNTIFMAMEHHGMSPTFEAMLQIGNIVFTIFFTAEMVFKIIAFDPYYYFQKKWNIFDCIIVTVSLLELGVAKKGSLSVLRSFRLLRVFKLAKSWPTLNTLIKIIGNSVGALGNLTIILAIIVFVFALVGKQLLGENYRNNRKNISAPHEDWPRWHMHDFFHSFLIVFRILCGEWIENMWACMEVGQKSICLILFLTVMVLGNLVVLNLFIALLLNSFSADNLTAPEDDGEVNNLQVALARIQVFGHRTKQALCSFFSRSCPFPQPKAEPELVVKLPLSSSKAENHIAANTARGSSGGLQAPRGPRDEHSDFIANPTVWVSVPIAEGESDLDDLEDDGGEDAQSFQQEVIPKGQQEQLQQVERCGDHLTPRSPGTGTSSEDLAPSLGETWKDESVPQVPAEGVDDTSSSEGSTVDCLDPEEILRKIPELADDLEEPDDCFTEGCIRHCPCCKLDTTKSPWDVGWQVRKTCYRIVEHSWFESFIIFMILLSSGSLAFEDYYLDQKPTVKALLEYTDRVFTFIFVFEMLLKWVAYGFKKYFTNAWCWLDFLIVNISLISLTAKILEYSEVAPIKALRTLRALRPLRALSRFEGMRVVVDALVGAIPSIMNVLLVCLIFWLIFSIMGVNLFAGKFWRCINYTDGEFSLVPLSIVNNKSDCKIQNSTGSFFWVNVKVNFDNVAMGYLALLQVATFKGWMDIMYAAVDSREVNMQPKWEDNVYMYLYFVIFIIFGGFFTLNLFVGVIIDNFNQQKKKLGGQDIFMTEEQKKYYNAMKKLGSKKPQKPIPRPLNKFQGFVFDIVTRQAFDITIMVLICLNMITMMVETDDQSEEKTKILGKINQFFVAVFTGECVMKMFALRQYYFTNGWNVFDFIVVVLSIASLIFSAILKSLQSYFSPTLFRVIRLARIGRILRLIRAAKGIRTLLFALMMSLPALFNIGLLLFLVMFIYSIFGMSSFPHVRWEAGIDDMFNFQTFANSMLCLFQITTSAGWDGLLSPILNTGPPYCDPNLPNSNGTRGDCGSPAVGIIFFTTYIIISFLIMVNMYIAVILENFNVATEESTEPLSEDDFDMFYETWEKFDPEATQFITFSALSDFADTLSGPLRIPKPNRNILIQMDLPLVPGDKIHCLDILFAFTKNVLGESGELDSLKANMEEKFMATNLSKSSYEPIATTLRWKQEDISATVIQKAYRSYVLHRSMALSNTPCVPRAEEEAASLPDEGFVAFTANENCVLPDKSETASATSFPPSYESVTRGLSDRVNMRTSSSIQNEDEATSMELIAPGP
Assay: FRET-based membrane potential assay, recombinant human sodium channel Nav1.8
Format: cell-based
Conditions: HEK293 cells stably expressing recombinant human Nav1.8; depolarization with veratridine (EC80) + scorpion venom
pIC50: −log10 of the molar value.
Measured pIC50 by item
readout: pIC50

INSERT INTO assay_data (smiles_code, readout, readout_value) VALUES
  ('O=C(/C=C/N1CCN(c2cccc3c2cnn3-c2ccccc2F)C1=O)N1CC[C@H](F)C1', 'pIC50', 6.17),
  ('O=C(CN1CCN(c2cccc3c2cnn3-c2ccccc2F)C1=O)NCC(F)(F)F', 'pIC50', 5.85),
  ('O=C(CN1CCN(c2cccc3c2cnn3-c2cc(Cl)cc(Cl)c2)C1=O)N1CC[C@H](F)C1', 'pIC50', 5.49),
  ('O=C(CN1CCN(c2cccc3c2cnn3-c2ccccc2F)C1=O)NC1CC(F)(F)C1', 'pIC50', 6.06);

###

Test system: MIA-induced osteoarthritic pain in rats
Experiment: Osteoarthritic (OA) pain induced by sodium monoiodoacetate (MIA), hind limb grip force
Type: in vivo, rat
Conditions: OA dose 10 mg/kg; male Sprague Dawley rats, grip force 20 days after MIA injection
Binary label based on OA MPE (%) with cut-off 30%: below gives 1 (yes), not below gives 0 (no).

INSERT INTO results (smiles_code, class) VALUES
  ('O=C1N(Cc2nnc(C3CCC3)o2)CCN1c1cccc2c1cnn2-c1ccccc1F', '1 (yes)'),
  ('Cc1cnc(CN2CCN(c3cccc4c3cnn4-c3ccccc3F)C2=O)o1', '0 (no)'),
  ('CCc1cc(CN2CCN(c3cccc4c3cnn4-c3ccccc3F)C2=O)on1', '0 (no)'),
  ('O=C1N(Cc2ncco2)CCN1c1cccc2c1cnn2-c1ccc(F)cc1F', '1 (yes)'),
  ('Cc1csc(CN2CCN(c3cccc4c3cnn4-c3ccccc3F)C2=O)n1', '0 (no)'),
  ('O=C1N(c2ccncc2)CCN1c1cccc2c1cnn2-c1ccccc1F', '0 (no)'),
  ('O=C1N(Cc2ncco2)CCN1c1cccc2c1cnn2-c1ccccc1F', '0 (no)'),
  ('O=C1N(Cc2cnccn2)CCN1c1cccc2c1cnn2-c1ccccc1F', '1 (yes)'),
  ('O=C1N(CC(=O)N2C[C@@H](F)C[C@@H]2c2cc(F)ccc2F)CCN1c1cccc2c1cnn2-c1ccccc1F', '0 (no)'),
  ('O=C1N(c2ncccn2)CCN1c1cccc2c1cnn2-c1ccccc1F', '0 (no)'),
  ('O=C1N(CC(=O)N2C[C@H]3C[C@@H]2CO3)CCN1c1cccc2c1cnn2-c1ccccc1F', '1 (yes)'),
  ('Cc1noc(C)c1CN1CCN(c2cccc3c2cnn3-c2ccccc2F)C1=O', '0 (no)'),
  ('O=C1N(Cc2nccs2)CCN1c1cccc2c1cnn2-c1ccccc1F', '0 (no)'),
  ('O=C1N(Cc2nnc(C3CC3)s2)CCN1c1cccc2c1cnn2-c1ccccc1F', '0 (no)'),
  ('C[C@H]1CN(c2cccc3c2cnn3-c2ccccc2F)C(=O)N1Cc1ncco1', '0 (no)'),
  ('CCOc1nnc(CN2CCN(c3cccc4c3cnn4-c3ccccc3F)C2=O)s1', '1 (yes)'),
  ('Cc1nc(CN2CCCN(c3cccc4c3cnn4-c3ccccc3F)C2=O)oc1C', '1 (yes)'),
  ('O=C1N(Cc2cscn2)CCN1c1cccc2c1cnn2-c1ccccc1F', '0 (no)');

###

Target: human Nav1.8 (Homo sapiens (Human))
Assay: FRET-based membrane potential assay, recombinant human sodium channel Nav1.8
Details: HEK293 cells stably expressing recombinant human Nav1.8; depolarization with veratridine (EC80) + scorpion venom
readout: IC50

INSERT INTO measurements (smiles_code, readout_value) VALUES
  ('O=C(CN1CCN(c2cccc3c2cnn3-c2ccccc2F)C1=O)N1CCCCCC1', '0.93 µM'),
  ('O=C1N(c2cccc3c2cnn3-c2ccccc2F)CCN1[C@H]1CCCC[C@@H]1O', '6.44 µM'),
  ('O=C(CN1CCN(c2cccc3c2cnn3-c2ccccc2F)C1=O)N[C@H]1CCOC1', '5.56 µM'),
  ('O=C(CN1CCN(c2cccc3c2cnn3-c2ccccc2F)C1=O)N[C@@H]1CCOC1', '5.28 µM'),
  ('O=C(CN1CCN(c2cccc3c2cnn3-c2ccccc2F)C1=O)N[C@@H]1CCC[C@H]1OCc1ccccc1', '0.501 µM'),
  ('CN1CCN(c2cccc3c2cnn3-c2ccccc2F)C1=O', '7.38 µM'),
  ('O=C(/C=C\N1CCN(c2cccc3c2cnn3-c2ccccc2F)C1=O)N1CC[C@H](F)C1', '0.912 µM'),
  ('O=C(CN1CCN(c2cccc3c2cnn3-c2ccccc2F)C1=O)NC1CCCCC1', '0.526 µM');

###

Biological target: human Nav1.7 (Homo sapiens (Human), UniProt Q15858)
Sequence (Q15858 whole entry): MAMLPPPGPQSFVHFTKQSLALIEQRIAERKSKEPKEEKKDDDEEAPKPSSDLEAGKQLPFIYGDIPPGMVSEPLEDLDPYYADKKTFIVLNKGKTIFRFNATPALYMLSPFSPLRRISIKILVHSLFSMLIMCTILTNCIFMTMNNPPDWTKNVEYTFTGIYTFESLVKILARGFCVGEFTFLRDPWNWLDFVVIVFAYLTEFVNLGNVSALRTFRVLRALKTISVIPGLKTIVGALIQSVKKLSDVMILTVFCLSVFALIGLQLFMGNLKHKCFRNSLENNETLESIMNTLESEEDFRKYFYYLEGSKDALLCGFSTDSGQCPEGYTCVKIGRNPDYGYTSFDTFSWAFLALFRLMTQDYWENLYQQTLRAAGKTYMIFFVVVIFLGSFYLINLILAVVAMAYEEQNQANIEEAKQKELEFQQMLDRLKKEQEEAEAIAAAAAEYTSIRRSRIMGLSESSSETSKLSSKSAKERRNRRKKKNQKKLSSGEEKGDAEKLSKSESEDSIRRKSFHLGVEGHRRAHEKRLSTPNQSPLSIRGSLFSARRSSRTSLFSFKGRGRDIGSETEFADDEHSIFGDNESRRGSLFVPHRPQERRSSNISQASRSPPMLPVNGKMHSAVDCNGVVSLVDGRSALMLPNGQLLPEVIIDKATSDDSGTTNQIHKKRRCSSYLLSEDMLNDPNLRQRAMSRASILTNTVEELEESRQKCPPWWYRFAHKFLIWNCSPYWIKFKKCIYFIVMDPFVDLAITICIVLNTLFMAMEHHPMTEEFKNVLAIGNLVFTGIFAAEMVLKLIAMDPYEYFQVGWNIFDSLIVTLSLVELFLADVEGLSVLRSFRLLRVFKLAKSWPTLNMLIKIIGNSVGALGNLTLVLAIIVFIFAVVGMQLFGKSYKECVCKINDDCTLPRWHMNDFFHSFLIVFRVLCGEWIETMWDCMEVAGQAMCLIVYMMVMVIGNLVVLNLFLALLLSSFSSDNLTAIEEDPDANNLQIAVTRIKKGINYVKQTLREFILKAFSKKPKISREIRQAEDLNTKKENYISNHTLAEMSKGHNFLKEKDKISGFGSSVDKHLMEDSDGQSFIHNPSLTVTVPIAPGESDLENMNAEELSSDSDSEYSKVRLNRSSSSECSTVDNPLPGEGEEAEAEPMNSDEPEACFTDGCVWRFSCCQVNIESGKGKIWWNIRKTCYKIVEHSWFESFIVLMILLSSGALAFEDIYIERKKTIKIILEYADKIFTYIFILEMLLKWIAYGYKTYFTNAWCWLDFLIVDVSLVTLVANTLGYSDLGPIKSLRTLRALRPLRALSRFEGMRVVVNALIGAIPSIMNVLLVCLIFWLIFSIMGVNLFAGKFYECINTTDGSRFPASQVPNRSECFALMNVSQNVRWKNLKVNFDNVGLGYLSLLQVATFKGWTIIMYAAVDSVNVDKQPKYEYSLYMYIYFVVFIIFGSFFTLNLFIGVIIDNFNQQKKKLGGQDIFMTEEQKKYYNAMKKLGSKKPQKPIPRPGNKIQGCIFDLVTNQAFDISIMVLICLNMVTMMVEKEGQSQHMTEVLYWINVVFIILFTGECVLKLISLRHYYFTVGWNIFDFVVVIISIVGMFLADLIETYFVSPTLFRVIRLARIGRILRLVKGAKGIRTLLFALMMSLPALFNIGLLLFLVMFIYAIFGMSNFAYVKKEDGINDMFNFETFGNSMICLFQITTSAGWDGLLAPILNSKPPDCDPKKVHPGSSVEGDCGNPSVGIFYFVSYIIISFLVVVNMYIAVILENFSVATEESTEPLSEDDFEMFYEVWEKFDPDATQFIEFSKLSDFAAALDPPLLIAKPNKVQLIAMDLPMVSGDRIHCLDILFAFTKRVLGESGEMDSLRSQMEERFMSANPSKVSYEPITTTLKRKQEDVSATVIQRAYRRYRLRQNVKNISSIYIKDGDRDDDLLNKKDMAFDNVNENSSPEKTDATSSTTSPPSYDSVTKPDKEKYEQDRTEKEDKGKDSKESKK
Assay: FRET-based membrane potential assay, recombinant human sodium channel Nav1.7
Details: HEK293 cells stably expressing recombinant human Nav1.7; depolarization with veratridine (EC80) + scorpion venom
pIC50: −log10 of the molar value.
Each entry below carries its recorded pIC50.
readout: pIC50

INSERT INTO assay_data (molecule, measurement_target, readout, readout_value) VALUES
  ('O=C(CN1CCN(c2cccc3c2cnn3-c2ccccc2F)C1=O)N1CCC(C(F)(F)F)CC1', 'human Nav1.7 (Homo sapiens (Human), UniProt Q15858)', 'pIC50', 6.02),
  ('O=C(CN1CCN(c2cccc3c2cnn3-c2ccccc2F)C1=O)N1CC(F)(F)C1', 'human Nav1.7 (Homo sapiens (Human), UniProt Q15858)', 'pIC50', 5.76),
  ('CC(C)c1nnc(CN2CCN(c3cccc4c3cnn4-c3ccccc3F)C2=O)o1', 'human Nav1.7 (Homo sapiens (Human), UniProt Q15858)', 'pIC50', 5.51),
  ('O=C(CC1CCCCC1)CN1CCN(c2cccc3c2cnn3-c2ccccc2F)C1=O', 'human Nav1.7 (Homo sapiens (Human), UniProt Q15858)', 'pIC50', 6.03),
  ('O=C1N(c2ccc(C3CC3)o2)CCN1c1cccc2c1cnn2-c1ccccc1F', 'human Nav1.7 (Homo sapiens (Human), UniProt Q15858)', 'pIC50', 5.87),
  ('O=C(CC1CCOC1)CN1CCN(c2cccc3c2cnn3-c2ccccc2F)C1=O (stereo not shown)', 'human Nav1.7 (Homo sapiens (Human), UniProt Q15858)', 'pIC50', 5.47),
  ('CC1COCC(C)N1C(=O)CN1CCN(c2cccc3c2cnn3-c2ccccc2F)C1=O (stereo not shown)', 'human Nav1.7 (Homo sapiens (Human), UniProt Q15858)', 'pIC50', 5.45),
  ('O=C1N(CC(=O)N2CCCC2c2ccccc2)CCN1c1cccc2c1cnn2-c1ccccc1F (stereo not shown)', 'human Nav1.7 (Homo sapiens (Human), UniProt Q15858)', 'pIC50', 6.39),
  ('O=C(CN1CCN(c2cccc3c2cnn3-c2ccccc2F)C1=O)N1C[C@@H]2[C@@H]3CC[C@@H](C3)[C@@H]2C1', 'human Nav1.7 (Homo sapiens (Human), UniProt Q15858)', 'pIC50', 6.08),
  ('O=C1N(CC(O)CC2CCCCC2)CCN1c1cccc2c1cnn2-c1ccccc1F (stereo not shown)', 'human Nav1.7 (Homo sapiens (Human), UniProt Q15858)', 'pIC50', 5.62),
  ('Cc1nc(CN2CCN(c3cccc4c3cnn4-c3ccccc3F)C2=O)c(C)o1', 'human Nav1.7 (Homo sapiens (Human), UniProt Q15858)', 'pIC50', 6.06),
  ('N#C[C@H]1CCCN1C(=O)CN1CCN(c2cccc3c2cnn3-c2ccccc2F)C1=O', 'human Nav1.7 (Homo sapiens (Human), UniProt Q15858)', 'pIC50', 6.18),
  ('O=C(CC1CCC1)CN1CCN(c2cccc3c2cnn3-c2ccccc2F)C1=O', 'human Nav1.7 (Homo sapiens (Human), UniProt Q15858)', 'pIC50', 6.06),
  ('CCc1nnc(CN2CCN(c3cccc4c3cnn4-c3ccccc3F)C2=O)o1', 'human Nav1.7 (Homo sapiens (Human), UniProt Q15858)', 'pIC50', 5.47),
  ('O=C(CN1CCN(c2cccc3c2cnn3-c2ccccc2F)C1=O)NC1(C(F)(F)F)CCC1', 'human Nav1.7 (Homo sapiens (Human), UniProt Q15858)', 'pIC50', 5.48),
  ('O=C1N(c2cccc3c2cnn3-c2ccccc2F)CCN1[C@H]1CO[C@H](c2cccc(F)c2)C1', 'human Nav1.7 (Homo sapiens (Human), UniProt Q15858)', 'pIC50', 5.37),
  ('O=C(CN1CCN(c2cccc3c2cnn3-c2ccccc2F)C1=O)N1CCN2CCCC2C1 (stereo not shown)', 'human Nav1.7 (Homo sapiens (Human), UniProt Q15858)', 'pIC50', 6.09),
  ('O=C1N(c2cccc3c2cnn3-c2ccccc2F)CCN1C1CCC1', 'human Nav1.7 (Homo sapiens (Human), UniProt Q15858)', 'pIC50', 5.97),
  ('CS(=O)(=O)N1CCN(c2cccc3c2cnn3-c2ccccc2F)C1=O', 'human Nav1.7 (Homo sapiens (Human), UniProt Q15858)', 'pIC50', 5.89),
  ('NC(=O)[C@@H](Cc1ccccc1)NC(=O)CN1CCN(c2cccc3c2cnn3-c2ccccc2F)C1=O', 'human Nav1.7 (Homo sapiens (Human), UniProt Q15858)', 'pIC50', 5.22),
  ('O=C(CN1CCN(c2cccc3c2cnn3-c2ccccc2F)C1=O)NCc1cc(F)ccc1F', 'human Nav1.7 (Homo sapiens (Human), UniProt Q15858)', 'pIC50', 6.07),
  ('CC(C)(C)c1cnc(CN2CCN(c3cccc4c3cnn4-c3ccccc3F)C2=O)o1', 'human Nav1.7 (Homo sapiens (Human), UniProt Q15858)', 'pIC50', 5.99);
